# experimental system: Nuclear receptor subfamily 5 group A member 2 (Homo sapiens)
# experimental details: LRH-1 (NR5A2) inverse agonists, retest, confirmation, cell-based, luminescence (AID 651613);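 note: HEK293T cells co-transfected with LRH-1 and StAR promoter luciferase reporter; 0% = vehicle wells and 100% = parental cells lacking receptor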
# assay conditions: cell-based LRH-1 luciferase reporter, inverse agonism; at 3.6 µM; active compounds read high

- compound: "CN(C)c1ccc(/C=C/c2ccc3ccccc3[n+]2C)cc1"
  experimental system: "Nuclear receptor subfamily 5 group A member 2 (Homo sapiens)"
  unit: "%"
  inhibition: 76.8
- compound: "O=Cc1ccc(N2CCCCCC2)cc1"
  experimental system: "Nuclear receptor subfamily 5 group A member 2 (Homo sapiens)"
  unit: "%"
  inhibition: 57.1
- compound: "CCN1/C(=C\\c2ccc3ccccc3[n+]2CC)Sc2cc(C)ccc21"
  experimental system: "Nuclear receptor subfamily 5 group A member 2 (Homo sapiens)"
  unit: "%"
  inhibition: 107
- compound: "Nc1nc(N)c2c(ccc3c2ccn3Cc2cccc([N+](=O)[O-])c2)n1"
  experimental system: "Nuclear receptor subfamily 5 group A member 2 (Homo sapiens)"
  unit: "%"
  inhibition: 65.6
- compound: "CC[C@@H](C(=O)[C@@H](C)[C@@H](O)[C@H](C)[C@@H]1O[C@@H]([C@@H](CC)C(=O)O)CC[C@@H]1C)[C@H]1O[C@]2(C=C[C@@H](O)[C@]3(CC[C@@](C)([C@H]4CC[C@](O)(CC)[C@H](C)O4)O3)O2)[C@H](C)C[C@@H]1C"
  experimental system: "Nuclear receptor subfamily 5 group A member 2 (Homo sapiens)"
  unit: "%"
  inhibition: 103
- compound: "COc1cccc2c1C(=O)c1c(O)c3c(c(O)c1C2=O)CC(O)(C(C)=O)CC3OC1CC(O)C(O)C(C)O1 (stereo not given)"
  experimental system: "Nuclear receptor subfamily 5 group A member 2 (Homo sapiens)"
  unit: "%"
  inhibition: 50.7
- compound: "CC(C)C(=O)Nc1ccc(C(=O)CN2C(=O)NC3(CCOc4ccccc43)C2=O)cc1 (stereo not given)"
  experimental system: "Nuclear receptor subfamily 5 group A member 2 (Homo sapiens)"
  unit: "%"
  inhibition: 37.1
- compound: "COc1ccc(NC(=O)COC(=O)CNC(=O)c2cc(OC)c(OC)c(OC)c2)cc1"
  experimental system: "Nuclear receptor subfamily 5 group A member 2 (Homo sapiens)"
  unit: "%"
  inhibition: 42.9
- compound: "Cc1cc2[nH]c3c(c[n+](C)c4ccccc34)c2cc1C"
  experimental system: "Nuclear receptor subfamily 5 group A member 2 (Homo sapiens)"
  unit: "%"
  inhibition: 100
- compound: "O=C(Nc1ccccc1)c1oc2ccccc2c1NC(=O)C1CC1"
  experimental system: "Nuclear receptor subfamily 5 group A member 2 (Homo sapiens)"
  unit: "%"
  inhibition: 52.8
- compound: "O=[N+]([O-])c1ccc(S(=O)Cc2ccccc2)c([N+](=O)[O-])c1 (stereo not given)"
  experimental system: "Nuclear receptor subfamily 5 group A member 2 (Homo sapiens)"
  unit: "%"
  inhibition: 43.5
- compound: "O=C1/C(=C\\c2ccc(Cl)c(Cl)c2)CN(C(=O)CCN2CCOCC2)C/C1=C/c1ccc(Cl)c(Cl)c1"
  experimental system: "Nuclear receptor subfamily 5 group A member 2 (Homo sapiens)"
  unit: "%"
  inhibition: 93.2
- compound: "Cc1ccc(C(=O)N/N=C/c2c(O)ccc3ccccc23)cn1"
  experimental system: "Nuclear receptor subfamily 5 group A member 2 (Homo sapiens)"
  unit: "%"
  inhibition: 102
- compound: "Cc1cccc(-n2c3nc(=O)[nH]c(=O)c-3cc3cc([N+](=O)[O-])ccc32)c1"
  experimental system: "Nuclear receptor subfamily 5 group A member 2 (Homo sapiens)"
  unit: "%"
  inhibition: 42.1
- compound: "Cc1c(C(=O)Nc2ccc(Cc3ccncc3)cc2)cccc1[N+](=O)[O-]"
  experimental system: "Nuclear receptor subfamily 5 group A member 2 (Homo sapiens)"
  unit: "%"
  inhibition: 56.2
- compound: "CCCOc1ccc(Br)cc1CSC(=N)N"
  experimental system: "Nuclear receptor subfamily 5 group A member 2 (Homo sapiens)"
  unit: "%"
  inhibition: 102
- compound: "Clc1ccc(OCCN2CCN(c3ncnc4sccc34)CC2)cc1"
  experimental system: "Nuclear receptor subfamily 5 group A member 2 (Homo sapiens)"
  unit: "%"
  inhibition: 58.5
- compound: "CCc1c(O)nc(SCC(=O)Nc2ccccc2C)n(-c2ccc(C)cc2)c1=O"
  experimental system: "Nuclear receptor subfamily 5 group A member 2 (Homo sapiens)"
  unit: "%"
  inhibition: 56.4
- compound: "Cc1cc(OCC(=O)Nc2ccc(OCc3ccccc3)cc2)nc(C(C)C)n1"
  experimental system: "Nuclear receptor subfamily 5 group A member 2 (Homo sapiens)"
  unit: "%"
  inhibition: 48
- compound: "COc1ccc(C(=O)Nc2cnn(Cc3ccc(Cl)cc3)c2)cc1OC"
  experimental system: "Nuclear receptor subfamily 5 group A member 2 (Homo sapiens)"
  unit: "%"
  inhibition: 51.8

----------
# experimental system: Nuclear receptor coactivator 3 (Homo sapiens) (UniProt Q9Y6Q9)
# Sequence (Q9Y6Q9 whole entry, looked up): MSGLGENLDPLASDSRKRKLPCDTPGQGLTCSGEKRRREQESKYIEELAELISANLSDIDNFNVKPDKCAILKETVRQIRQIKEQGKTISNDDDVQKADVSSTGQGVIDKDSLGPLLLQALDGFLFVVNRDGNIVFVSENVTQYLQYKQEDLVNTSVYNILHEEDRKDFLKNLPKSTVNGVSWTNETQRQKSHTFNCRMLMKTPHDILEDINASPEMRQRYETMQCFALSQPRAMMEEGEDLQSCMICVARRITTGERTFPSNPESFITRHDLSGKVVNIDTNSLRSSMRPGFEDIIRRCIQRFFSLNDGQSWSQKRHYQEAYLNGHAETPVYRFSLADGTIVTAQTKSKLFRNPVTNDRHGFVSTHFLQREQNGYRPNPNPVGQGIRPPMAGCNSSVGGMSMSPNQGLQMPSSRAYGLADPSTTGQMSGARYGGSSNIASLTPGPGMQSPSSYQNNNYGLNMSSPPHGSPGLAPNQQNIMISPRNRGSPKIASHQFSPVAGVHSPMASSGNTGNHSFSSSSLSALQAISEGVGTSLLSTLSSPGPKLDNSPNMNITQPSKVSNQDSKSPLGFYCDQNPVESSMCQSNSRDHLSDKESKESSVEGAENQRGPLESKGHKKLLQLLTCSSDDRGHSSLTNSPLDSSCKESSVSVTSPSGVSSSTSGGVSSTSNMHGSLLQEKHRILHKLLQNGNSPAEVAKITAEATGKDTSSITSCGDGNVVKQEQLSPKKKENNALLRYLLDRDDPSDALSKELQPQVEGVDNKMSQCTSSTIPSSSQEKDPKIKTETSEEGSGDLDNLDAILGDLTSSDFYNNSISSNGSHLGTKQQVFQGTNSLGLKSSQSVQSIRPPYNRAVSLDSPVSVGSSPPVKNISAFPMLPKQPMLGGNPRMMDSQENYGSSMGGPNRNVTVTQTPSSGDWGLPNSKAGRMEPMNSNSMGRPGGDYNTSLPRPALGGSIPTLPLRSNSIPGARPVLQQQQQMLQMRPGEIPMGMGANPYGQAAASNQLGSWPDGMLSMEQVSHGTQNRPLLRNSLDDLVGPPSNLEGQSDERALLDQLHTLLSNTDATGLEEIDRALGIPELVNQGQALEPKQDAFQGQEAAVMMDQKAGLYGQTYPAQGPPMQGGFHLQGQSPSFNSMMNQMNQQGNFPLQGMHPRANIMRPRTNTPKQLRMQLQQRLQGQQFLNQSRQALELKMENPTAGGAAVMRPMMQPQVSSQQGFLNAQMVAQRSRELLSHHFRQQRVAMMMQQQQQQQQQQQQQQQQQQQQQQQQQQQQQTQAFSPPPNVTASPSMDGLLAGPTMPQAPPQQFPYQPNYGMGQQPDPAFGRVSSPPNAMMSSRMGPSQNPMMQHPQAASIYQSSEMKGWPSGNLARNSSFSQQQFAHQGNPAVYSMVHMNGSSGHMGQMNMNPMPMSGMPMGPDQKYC
# experimental details: SRC3 coactivator transcriptional activity inhibitors, confirmation, cell-based, luminescence, quadruplicate (AID 588792);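 note: 0% = DMSO treated cells and 100% = gossypol at 36 µM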
# assay conditions: HEK293 GAL4-SRC3 luciferase reporter, at 3.6 µM, active compounds read high
Active and inactive are the calls of the source.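 The calls were made as follows: active = mean inhibition over 43.08%, the solvent-only control mean plus 3 SD; inactive = the rest.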

- molecule: "C=C(C(=O)c1ccccc1)C(CC(=O)c1ccccc1)c1ccccc1 (centres undefined)"
  experimental system: "Nuclear receptor coactivator 3 (Homo sapiens) (UniProt Q9Y6Q9)"
  inhibition: "25.9% (inactive)"
- molecule: "C=CC[n+]1ccc(/C=C2\\C=Cc3cc(C)ccc3N2CC)c2ccccc21"
  experimental system: "Nuclear receptor coactivator 3 (Homo sapiens) (UniProt Q9Y6Q9)"
  inhibition: "79.4% (active)"
- molecule: "CCCCC(=O)NC(c1ccc(OC)cc1)c1ccc2cccnc2c1O (centres undefined)"
  experimental system: "Nuclear receptor coactivator 3 (Homo sapiens) (UniProt Q9Y6Q9)"
  inhibition: "28.5% (inactive)"
- molecule: "CN1OC[C@@H]2CN(C(=O)c3ccc(-c4ccccc4)cc3)[C@H](c3ccc(-c4cccc(F)c4)cc3)C[C@@H]21"
  experimental system: "Nuclear receptor coactivator 3 (Homo sapiens) (UniProt Q9Y6Q9)"
  inhibition: "-6.51% (inactive)"
- molecule: "Cc1nc2c(-c3ccc(Cl)cc3)cnn2c(N)c1-c1ccc(F)cc1"
  experimental system: "Nuclear receptor coactivator 3 (Homo sapiens) (UniProt Q9Y6Q9)"
  inhibition: "38% (inactive)"
- molecule: "CC(=O)c1ccc(Nc2ncnc3ccc(Br)cc23)cc1"
  experimental system: "Nuclear receptor coactivator 3 (Homo sapiens) (UniProt Q9Y6Q9)"
  inhibition: "49.5% (active)"
- molecule: "CCn1cc(C(=O)NCc2ccccn2)c(=O)c2cc(F)c(N3CCN(C)CC3)cc21"
  experimental system: "Nuclear receptor coactivator 3 (Homo sapiens) (UniProt Q9Y6Q9)"
  inhibition: "-0.49% (inactive)"
- molecule: "CCC(=O)Nc1nc(C)c(-c2csc(Nc3cccc(O)c3)n2)s1"
  experimental system: "Nuclear receptor coactivator 3 (Homo sapiens) (UniProt Q9Y6Q9)"
  inhibition: "16.5% (inactive)"
- molecule: "CCc1ccc(/C=C/c2c[nH]c3ccccc23)[n+](CC)c1"
  experimental system: "Nuclear receptor coactivator 3 (Homo sapiens) (UniProt Q9Y6Q9)"
  inhibition: "29.8% (inactive)"
- molecule: "Cc1ccsc1C(=O)OCC(=O)c1cc(C)n(CC2CCCO2)c1C (centres undefined)"
  experimental system: "Nuclear receptor coactivator 3 (Homo sapiens) (UniProt Q9Y6Q9)"
  inhibition: "73.4% (active)"
- molecule: "Cc1ccc2[nH]c(C(=O)N/N=C/c3ccccc3O)c(C)c2c1"
  experimental system: "Nuclear receptor coactivator 3 (Homo sapiens) (UniProt Q9Y6Q9)"
  inhibition: "65.9% (active)"
- molecule: "Cc1cc(C(=O)COC(=O)c2cccc(NS(C)(=O)=O)c2)c(C)n1CC1CCCO1 (centres undefined)"
  experimental system: "Nuclear receptor coactivator 3 (Homo sapiens) (UniProt Q9Y6Q9)"
  inhibition: "19.3% (inactive)"
- molecule: "COc1ccc(C(Cl)=C(C=O)c2ccc(OC)c(OC)c2)cc1OC"
  experimental system: "Nuclear receptor coactivator 3 (Homo sapiens) (UniProt Q9Y6Q9)"
  inhibition: "22.3% (inactive)"
- molecule: "Cc1ccc(-n2c(-c3ccccc3)c[n+]3c2CCC3)cc1"
  experimental system: "Nuclear receptor coactivator 3 (Homo sapiens) (UniProt Q9Y6Q9)"
  inhibition: "14.4% (inactive)"
- molecule: "Cn1c(C(=O)O)c(CC(=O)Nc2ccc3c(c2)OCCO3)c2ccccc21"
  experimental system: "Nuclear receptor coactivator 3 (Homo sapiens) (UniProt Q9Y6Q9)"
  inhibition: "19.4% (inactive)"
- molecule: "Cc1ccc(C(C)C)c(OCc2ccc(C(=O)N/N=C/c3cccc(O)c3O)cc2)c1"
  experimental system: "Nuclear receptor coactivator 3 (Homo sapiens) (UniProt Q9Y6Q9)"
  inhibition: "56.2% (active)"
- molecule: "CC[C@H](C)Cc1cn([C@@H](CCCCNC(=O)OC(C)(C)C)C(=O)NCCCCCCCCCCC(=O)N2CCN(C(=O)OC(C)(C)C)CC2)nn1"
  experimental system: "Nuclear receptor coactivator 3 (Homo sapiens) (UniProt Q9Y6Q9)"
  inhibition: "17.9% (inactive)"
- molecule: "O=C(O)c1ccc(N/N=C/c2ccc3nccnc3c2)cc1"
  experimental system: "Nuclear receptor coactivator 3 (Homo sapiens) (UniProt Q9Y6Q9)"
  inhibition: "17.8% (inactive)"
- molecule: "CCc1c(C)nc2ccc(Br)cc2c1SCCC#N"
  experimental system: "Nuclear receptor coactivator 3 (Homo sapiens) (UniProt Q9Y6Q9)"
  inhibition: "58.4% (active)"
- molecule: "N=c1c2c(n(Cc3ccc(F)cc3)c3c1CCC3)CCCC2"
  experimental system: "Nuclear receptor coactivator 3 (Homo sapiens) (UniProt Q9Y6Q9)"
  inhibition: "27.9% (inactive)"
- molecule: "CCCC(=O)NC(c1ccc2c(c1)OCO2)c1cc(Cl)c2cccnc2c1O (centres undefined)"
  experimental system: "Nuclear receptor coactivator 3 (Homo sapiens) (UniProt Q9Y6Q9)"
  inhibition: "40.7% (inactive)"
- molecule: "COc1ccc(OC)c(N/C=C/C(=O)c2ccccc2)c1"
  experimental system: "Nuclear receptor coactivator 3 (Homo sapiens) (UniProt Q9Y6Q9)"
  inhibition: "44.8% (active)"
- molecule: "O=C(Nc1cccc(Cl)c1)Nc1nnc(-c2ccncc2)s1"
  experimental system: "Nuclear receptor coactivator 3 (Homo sapiens) (UniProt Q9Y6Q9)"
  inhibition: "40.1% (inactive)"
- molecule: "CCOC(=O)C1=Nc2ccccc2C1=[N+]=[N-]"
  experimental system: "Nuclear receptor coactivator 3 (Homo sapiens) (UniProt Q9Y6Q9)"
  inhibition: "35.7% (inactive)"
- molecule: "Cc1ccc(S(=O)(=O)NC(CC(C)C)C(=O)NCC(c2ccco2)N2CCCCC2)cc1 (centres undefined)"
  experimental system: "Nuclear receptor coactivator 3 (Homo sapiens) (UniProt Q9Y6Q9)"
  inhibition: "27% (inactive)"
- molecule: "CCN(CC)S(=O)(=O)c1cccc(C(=O)N/N=C(\\C)c2ccc(O)cc2O)c1"
  experimental system: "Nuclear receptor coactivator 3 (Homo sapiens) (UniProt Q9Y6Q9)"
  inhibition: "66.7% (active)"
- molecule: "CC(C)(C)c1cc[n+](C2=C([O-])c3ccccc3C(=O)/C2=N\\S(=O)(=O)c2cccs2)cc1"
  experimental system: "Nuclear receptor coactivator 3 (Homo sapiens) (UniProt Q9Y6Q9)"
  inhibition: "9.53% (inactive)"
- molecule: "C=CCc1cccc(/C=N/NC(=O)CCC(=O)Nc2ccc(F)cc2)c1O"
  experimental system: "Nuclear receptor coactivator 3 (Homo sapiens) (UniProt Q9Y6Q9)"
  inhibition: "26.2% (inactive)"
- molecule: "Cc1ccc(C(=O)C[n+]2ccc(Cc3ccccc3)cc2)cc1"
  experimental system: "Nuclear receptor coactivator 3 (Homo sapiens) (UniProt Q9Y6Q9)"
  inhibition: "-4.6% (inactive)"
- molecule: "CCC(=O)NC(c1cccs1)c1cc(Cl)c2cccnc2c1O (centres undefined)"
  experimental system: "Nuclear receptor coactivator 3 (Homo sapiens) (UniProt Q9Y6Q9)"
  inhibition: "20.9% (inactive)"
- molecule: "O=c1[nH]c(=S)ccn1C1OC(CO)C(O)C1O (centres undefined)"
  experimental system: "Nuclear receptor coactivator 3 (Homo sapiens) (UniProt Q9Y6Q9)"
  inhibition: "3.59% (inactive)"
- molecule: "COc1cc(C(=O)NC2CCCc3c2cnn3-c2ccccc2F)cc(OC)c1OC (centres undefined)"
  experimental system: "Nuclear receptor coactivator 3 (Homo sapiens) (UniProt Q9Y6Q9)"
  inhibition: "2.41% (inactive)"
- molecule: "COc1cc2c(C#N)c(N3CCOCC3)nc(N)c2c(N)n1"
  experimental system: "Nuclear receptor coactivator 3 (Homo sapiens) (UniProt Q9Y6Q9)"
  inhibition: "-5.11% (inactive)"
- molecule: "O=C(Nc1nc(-c2ccccc2)cs1)c1ccc2c(=O)n3c(nc2c1)CCCCC3"
  experimental system: "Nuclear receptor coactivator 3 (Homo sapiens) (UniProt Q9Y6Q9)"
  inhibition: "9.45% (inactive)"
- molecule: "O=C(Nc1ncc(Cc2ccc(C(F)(F)F)cc2)s1)c1ccc(-c2cccc([N+](=O)[O-])c2)o1"
  experimental system: "Nuclear receptor coactivator 3 (Homo sapiens) (UniProt Q9Y6Q9)"
  inhibition: "0.3% (inactive)"
- molecule: "CC[n+]1ccc(/C=C/c2c[nH]c3ccccc23)cc1"
  experimental system: "Nuclear receptor coactivator 3 (Homo sapiens) (UniProt Q9Y6Q9)"
  inhibition: "8.39% (inactive)"
- molecule: "O=C(NN=Cc1c(O)ccc2ccccc12)c1ccncc1"
  experimental system: "Nuclear receptor coactivator 3 (Homo sapiens) (UniProt Q9Y6Q9)"
  inhibition: "77% (active)"
- molecule: "CC(C)c1ccc(-c2nc3ccccc3s2)cc1"
  experimental system: "Nuclear receptor coactivator 3 (Homo sapiens) (UniProt Q9Y6Q9)"
  inhibition: "80.1% (active)"
- molecule: "O=c1c2ccccc2cnn1CCOc1ccccc1"
  experimental system: "Nuclear receptor coactivator 3 (Homo sapiens) (UniProt Q9Y6Q9)"
  inhibition: "-15.3% (inactive)"
- molecule: "Cc1ccc(-c2cn(-c3ccccc3)c3[n+]2CCCS3)cc1"
  experimental system: "Nuclear receptor coactivator 3 (Homo sapiens) (UniProt Q9Y6Q9)"
  inhibition: "1.67% (inactive)"
- molecule: "Nc1nc2c(nnn2C2CC(O)C(CO)O2)c(=O)[nH]1 (centres undefined)"
  experimental system: "Nuclear receptor coactivator 3 (Homo sapiens) (UniProt Q9Y6Q9)"
  inhibition: "78.7% (active)"
- molecule: "CCn1c(C)nc2cc(C(=O)N/N=C(\\C)c3ccc(OC)cc3O)ccc21"
  experimental system: "Nuclear receptor coactivator 3 (Homo sapiens) (UniProt Q9Y6Q9)"
  inhibition: "24.6% (inactive)"
- molecule: "c1ccc2c(c1)Nc1ccncc1S2"
  experimental system: "Nuclear receptor coactivator 3 (Homo sapiens) (UniProt Q9Y6Q9)"
  inhibition: "31.2% (inactive)"
- molecule: "CN(c1ccccc1)S(=O)(=O)c1cccc(C(=O)OCC(=O)Nc2ccc(C(N)=O)cc2)c1"
  experimental system: "Nuclear receptor coactivator 3 (Homo sapiens) (UniProt Q9Y6Q9)"
  inhibition: "6.76% (inactive)"
